Test: binders of probe aFGF10 on microarray, primary screen, stem cell growth factor project, biochemical, small-molecule microarray, fluorescence 635/667 (AID 1071);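 also: score merges 667 nm spot intensity and signal to noise from triplicate slides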
Settings: higher = more signal
Measured composite z-score, listed per entry for reference.
measured-attribute: composite z-score

compound: COc1cccc([C@H]2Oc3ccc(OC)cc3C(=NOC[C@@H](O)COCc3ccco3)[C@@H]2O)c1
measured-attribute: composite z-score
readout-value: -1.12
--
compound: CON=C[C@@H](NS(=O)(=O)c1ccc(C)cc1)[C@H](C)C=CCC(=O)OC
measured-attribute: composite z-score
readout-value: -0.224
--
compound: CCCNC(=O)OC[C@H]1O[C@H](CCON=C(C)CCN2CCCc3nc(C)c(C)cc32)C=C[C@@H]1Oc1ccc(OC)cc1
measured-attribute: composite z-score
readout-value: 0.552
--
compound: CO[C@H]1COC(=O)CC=C[C@H](C)[C@@H](OC)COC(=O)[C@@H](C)COC(=O)CC=C[C@@H]1C
measured-attribute: composite z-score
readout-value: -0.938
--
compound: CC(C)=NOC[C@@H](C)[C@H](OCc1ccccc1)C(C)C
measured-attribute: composite z-score
readout-value: -0.303
--
compound: COc1ccc(O[C@H]2C=C[C@@H](c3ccccc3)O[C@@H]2COC(=O)CCC(C)=NOC(C)CN2CCCc3nc(C)c(C)cc32)cc1 (stereo partly drawn)
measured-attribute: composite z-score
readout-value: 0.623
--
compound: CC(C)CON=C1C[C@@H](O)[C@@H](O)[C@@H]2[C@@H]3C(=O)N(Cc4ccc5c(c4)OCO5)C(=O)[C@@H]3CC[C@H]12
measured-attribute: composite z-score
readout-value: 0.715
--
compound: CCOC(=O)NN=C1C[C@@H](O)[C@@H](O)[C@@H]2[C@@H]3C(=O)N(c4ccc(F)cc4F)C(=O)[C@@H]3CC[C@@H]12
measured-attribute: composite z-score
readout-value: 0.281
